Recorded values, source ChEMBL document CHEMBL1201862.

- Tested on: NCI-H522
- experiment.description: NCI tumour cell line growth inhibition, 48 h
Calls of active or inactive are those of the source. Rule as the data show it: active = GI50 up to about 1.1 µM and inactive = higher.
Assignment: determine reported GI50 for the given molecules.

In the examples that follow, each entry is paired with its recorded GI50.
INSERT INTO measurements (molecule, observed_value) VALUES
  ('COc1ccc([N+](=O)[O-])c2c(NCCCN(C)C)c(C)c(C)nc12', '27.9 µM (inactive)'),
  ('COc1cc(/C=C2\CCC(C)C3C2=NN(C(C)=O)C3c2cc(OC)c(OC)c(OC)c2)cc(OC)c1OC (centres undefined)', '5.09 µM (inactive)'),
  ('O=S(=O)(O)c1cc(/N=[N+](\[O-])c2ccc(/N=N/c3ccccc3)cc2S(=O)(=O)O)ccc1/C=C/c1ccc(/N=[N+](\[O-])c2ccc(/N=N/c3ccccc3)cc2S(=O)(=O)O)cc1S(=O)(=O)O', '> 100 µM (inactive)'),
  ('CC12CC(=O)C3C(CCC4=CC(=O)CCC43C)C1CC=C2CC(=O)O (centres undefined)', '> 100 µM (inactive)');

Hey, can you go through the list below and give me GI50 for every item?
1. C=C(C)C1CCC2(CO)C(O)CC3(C)C(CCC4C5(C)CCC(O)C(C)(C)C5CCC43C)C12 (centres undefined)
2. CC(=NNC(=S)Nc1ccccc1)c1cccc(C(C)=NNC(=S)Nc2ccccc2)n1
3. CCN(CC)Cc1cc(Nc2ccnc3ccc4c(nnn4C)c23)ccc1O
4. Cn1c(=O)c2c(nc(Nc3ccc(Cl)cc3)n3c(=O)n(-c4ccccc4)c(=O)n23)n(C)c1=O

[reply]
["6.58 µM (inactive)", "5.35 µM (inactive)", "16.2 µM (inactive)", "> 100 µM (inactive)"]

Hey, can you go through the list below and give me GI50 for every item?
1. Nc1ccc(C(=O)NN2C(=O)C(Cl)C2c2ccc([N+](=O)[O-])cc2)cc1 (centres undefined)
2. COc1cc(-c2cc(=O)c3c(O)c(OC)c(OC)c(OC)c3o2)ccc1O
3. Nn1c(CNc2ccc(-c3nnc(Nc4ccc(Cl)cc4)n3N)cc2)nnc1Nc1ccc(Cl)cc1
4. Nc1c(-c2ccccc2)c2ccc([N+](=O)[O-])cc2c(=O)n1-c1cccc(C(=O)O)c1
5. CCCCCCc1cc2cc(C(=O)Nc3ccc(F)cc3)c(=N)oc2cc1O
6. CC(=O)NC(CCCN(Cc1ccccc1)C(=O)NCCCl)C(=O)NCc1ccccc1 (centres undefined)
7. Cc1cc(C)n(-c2nc(C)c(CCO)c(=O)[nH]2)n1

[reply]
["1.73 µM (inactive)", "17.1 µM (inactive)", "75.5 µM (inactive)", "> 100 µM (inactive)", "0.655 µM (active)", "> 100 µM (inactive)", "> 100 µM (inactive)"]

Hey, can you go through the list below and give me GI50 for every item?
1. CCNC(=S)N/N=C(\C)c1cccc(C)n1
2. Cc1ccc(C)c(COCCOCn2cc(Br)c(N)nc2=O)c1
3. O=C(O)C1=NN(c2ccc(S(=O)(=O)O)cc2)C2(C1)SCC(=O)N2c1nc2ccccc2s1 (centres undefined)
4. CCCCC1c2c([nH]c3ccccc23)C2C(=O)N(c3ccc(OC)cc3)C(=O)C2C1CCC (centres undefined)

[reply]
["0.897 µM (active)", "> 100 µM (inactive)", "> 100 µM (inactive)", "6.28 µM (inactive)"]
